System: His-TRAF6_310-522
Test: Peptide array, TRAF6 binding
Set-up: species or system human
Settings: peptide array
Method: Arrays were synthesized on a Multipep Synthesizer (Intavis Bioanalytical Instruments) on derivatized cellulose (amino-Peg500 UC540, acid-hardened, loading 400 nmol per cm^2, Intavis). After peptides were spot-assembled and deprotected, membranes were washed extensively with dichloromethane, N-methylpyrrolidone, and ethanol and stored at −20 °C until use. […] Filters were developed with ECL and no nonspecific antibody binding was detected. […]
PROPERTY NAME: TRAF6 binding to immobilized peptide (in words)

INSERT INTO assay_data (substance, system, result_value) VALUES
  ('PHLPTLLLGSSGSGGDDDDPHGPVQLSYYD [peptide 11, LMP1 357-386 (30mer)]', 'His-TRAF6_310-522', 'efficiently captured'),
  ('… GDDDDPHGPVQLSYYD [peptide 8, LMP1 371-386 (16mer)]', 'His-TRAF6_310-522', 'efficiently captured');
